Listed compounds paired with reported cell count
Assay: blockers of VCAM1 upregulation by TNFa – imaging, TNFa stimulus, retest and dose response, confirmation (AID 1013);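 note: compound on cells 1 h before TNFa then 24 h more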
Details: TNFa-stimulated cells, VCAM1 expression imaging; cell count; at 10 µM; stronger effect = lower value
Write down the numeric answer in % and omit the unit.

Lookup: Return cell count for the following compound: CCCOc1ccccc1C1CC(=O)Nc2cc3c(cc21)OCCO3 (stereo not given)
Found: 113

Lookup: Please give the documented cell count of O=C(N/N=C/C(Br)=C/c1ccccc1)c1n[nH]c2c1CCC2
Found: 28.6

Lookup: Output cell count of COc1ccc(CCNc2nnc(Sc3nnnn3-c3ccccc3)s2)cc1OC
Found: 27.4

Lookup: Report cell count, nothing else, for this compound: CCC(C)[C@@H](NC(=O)OC(C)(C)C)c1nnc(S(=O)(=O)Cc2cccc(C)c2)o1 (stereo not given in full)
Found: 95.6

Lookup: For the compound O=[N+]([O-])c1ccc(O)c(/C=N/Nc2ccc(Cl)nn2)c1 , give its measured cell count value.
Found: 106

---

Assay: blockers of VCAM1 upregulation by TNFa – imaging, TNFa stimulus, retest and dose response, confirmation (AID 1013);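 note: compound on cells 1 h before TNFa then 24 h more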
Conditions: TNFa-stimulated cells, VCAM1 expression imaging; cell count; at 10 µM; stronger effect = lower value
# cell count per record follows
Please reply with the bare figure in % and do not write the unit itself.

Previously resolved entries follow.
1. O=[N+]([O-])c1ccc(Sc2nc3ccccc3o2)c([N+](=O)[O-])c1 : 106
2. COc1cc(C(=O)N2CCN(c3cc(Cl)ccc3Cl)CC2)cc(OC)c1OC : 82.9
3. O=[N+]([O-])/C=C/c1c(OCc2ccccc2)ccc2ccccc12 : 112
4. COc1ccc(-c2cc(C(F)(F)F)n3nc(C(=O)Nc4cc(C)on4)cc3n2)cc1OC : 97.9
5. NC(=S)N/N=C\c1ccc(-c2cccc(Cl)c2Cl)o1 : 106
6. Oc1ccc(Nc2nc(-c3ccc4ccccc4c3)cs2)cc1 : 92.9

Let's switch to this compound now.
Lookup: Report measured cell count; entry is COc1cccc(CSc2nc3ccccc3cc2C=O)c1
Found: 91.7

---

The entries below come with measured cell count values attached.
Assay: blockers of VCAM1 upregulation by TNFa – imaging, TNFa stimulus, retest and dose response, confirmation (AID 1013);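 note: compound on cells 1 h before TNFa then 24 h more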
Settings: TNFa-stimulated cells, VCAM1 expression imaging; cell count; at 10 µM; stronger effect = lower value
API: value field is a number in %; no unit string.

1) O=C(c1ccco1)N1CCN(C(=O)N2c3ccccc3Sc3ccccc32)CC1 : 40.3
2) CCn1c2ccccc2c2cc(NC(=O)c3cc(OC)c(OC)c(OC)c3)ccc21 : 33.6
3) CCSc1nc2ccccc2n1C(=O)/C=C\c1ccc(OC)c(OC)c1 : 98.3
4) CCc1ccc2oc(-c3cc(N)ccc3O)nc2c1 : 97.7

Lookup: Output cell count of CC(C)Oc1ccccc1C1CC(=O)Nc2cc3c(cc21)OCO3 (stereo unspecified)
Found: 80.6

Lookup: Note down cell count recorded for Cc1cc(=O)oc2cc(OCC3CC(c4ccccc4Cl)=NO3)ccc12 (stereo unspecified)
Found: 106

---

Experiment: blockers of VCAM1 upregulation by TNFa – imaging, TNFa stimulus, retest and dose response, confirmation (AID 1013);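 note: compound on cells 1 h before TNFa then 24 h more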
Details: TNFa-stimulated cells, VCAM1 expression imaging; cell count; at 10 µM; stronger effect = lower value
REPORTED METRIC: cell count
For clarity, give the value followed by its unit.

These recorded examples may help you get a feel for the data.
1) Cc1ccc(-c2nc(NC(=O)c3nn(C)cc3[N+](=O)[O-])sc2C)cc1C : 94.9%
2) CCOC(=O)c1[nH]c(C)c(C(=O)N2CCc3ccccc32)c1C : 61.8%
3) COc1cc(C2C3=C(Nc4ncnn42)c2ccccc2CC3)cc(OC)c1OC (stereo not given) : 27.6%
4) Cc1ccccc1CS(=O)(=O)c1nnc([C@H](Cc2ccccc2)NC(=O)OC(C)(C)C)o1 : 114%

Then there is this molecule:
Lookup: Quick one: give measured cell count for CCOc1cc(/C=N\NC(=O)Cc2ccccc2)ccc1OCC(=O)Nc1ccc(C)c(C)c1
Found: 110%

This collection of values is drawn from PubChem BioAssay AID1013.
